Assay: NCI Yeast Anticancer Drug Screen. Data for the sgs1 strain (AID 173);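 also: 0% = growth of vehicle-only control cultures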
Conditions: S. cerevisiae sgs1 mutant, at 100.0 µM
About 79,000 compounds went through this panel and 15% of them were active in at least one assay; those are over-represented in the sample as a whole. Active and inactive are the calls of the source. Rule as the data show it: active = growth inhibition above about 70%; inactive = the rest.
Labels: 1 (active), 0 (inactive)

{"Compound": "COC(=O)/C=C1/OC(c2ccc(Br)cc2)=C(Br)C1=O", "Answer label": 0}
{"Compound": "O=C1C(Cl)=C(Cl)C(Cl)(Cl)C(Cl)C1(Cl)Cl (stereo not given)", "Answer label": 1}
{"Compound": "Nc1cc(S(N)(=O)=O)ccc1SSc1ccc(S(N)(=O)=O)cc1N", "Answer label": 1}
{"Compound": "CC(=O)N1C(=O)/C(=C\\C(=O)c2ccc([N+](=O)[O-])cc2)c2ccccc21", "Answer label": 1}
{"Compound": "c1ccc2c(c1)ccc1c3ccncc3ccc21", "Answer label": 1}
{"Compound": "NNC(=S)Nc1cccc2ccccc12", "Answer label": 0}
{"Compound": "O=NN(CCCl)C(=O)NCCCl", "Answer label": 0}
{"Compound": "CN(N=O)C(=O)N[C@@H](C=O)[C@@H](O)[C@H](O)[C@H](O)CO", "Answer label": 0}
{"Compound": "O=Nn1c2ccccc2c2cc([N+](=O)[O-])ccc21", "Answer label": 1}
{"Compound": "CCOC(=O)C1=C(C)NC(C)=C(C(=O)OCC)C1c1ccc(C)cc1", "Answer label": 1}
{"Compound": "C=Cc1cnc([N+](=O)[O-])n1C", "Answer label": 1}
{"Compound": "CCCc1[nH]nc(C(N)=O)c1N=NN(C)C", "Answer label": 1}
{"Compound": "CCOC(=O)Nc1ccc2c(c1)Cc1ccccc1-2", "Answer label": 0}
{"Compound": "CCOC(=O)c1csc(Br)n1", "Answer label": 0}
{"Compound": "S=c1cn[nH]c2ccc(Br)cc12", "Answer label": 1}
{"Compound": "Cc1ccc2c(ccc(/C=C/c3ccc(O)c4ncccc34)[n+]2C)c1", "Answer label": 1}
{"Compound": "N#CC(=S)Nc1cccc(Cl)c1", "Answer label": 1}
{"Compound": "C=C(CCCO)[C@@H]1CC[C@@](C)(O)[C@H]1C", "Answer label": 0}
{"Compound": "O=C(/C=C\\c1ccc([N+](=O)[O-])o1)Nc1ccc(Cl)cc1", "Answer label": 1}
{"Compound": "COC(=O)c1ccc2c(c1)Cc1ccccc1-2", "Answer label": 0}

###

Experiment: NCI Yeast Anticancer Drug Screen. Data for the sgs1 strain (AID 173);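 also: 0% = growth of vehicle-only control cultures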
Settings: S. cerevisiae sgs1 mutant, at 1.2 µM, hits give high values
Experimental: Growth inhibition of yeast strains with defined genetic alterations is measured as a screen for potential anti-cancer activity. Selected strains with alterations in DNA damage repair or cell cycle control were exposed to compounds and growth inhibition was measured relative to vehicle treated controls. The strain used in this assay is sgs1
Compounds without any hit were thinned out: in the full panel of roughly 79,000, 15% have a hit.
Parameter measured: growth inhibition (%)

{"Molecule": "O/N=C/C1c2ccccc2-c2ccccc21", "Experimental result": 0}
{"Molecule": "O=NN(CCCl)C(=O)NC1CCCCC1", "Experimental result": 4}
{"Molecule": "CCCCC(CC)C(=O)Oc1ccc(C(=O)c2ccccc2)c(O)c1 (configuration not stated)", "Experimental result": 10}
{"Molecule": "CCCCC(=O)c1c(O)nc2sccn2c1=O", "Experimental result": 33}
{"Molecule": "O=C(Nc1cccc(C(F)(F)F)c1)Oc1ccc(Cl)cc1C(=O)c1ccccc1", "Experimental result": 24}
{"Molecule": "O=Nn1c2ccccc2c2ccccc21", "Experimental result": -3}
{"Molecule": "CN(Cc1cnc2nc(N)nc(N)c2n1)c1ccc(C(=O)NC(CCC(=O)O)C(=O)O)c2ccccc12 (configuration not stated)", "Experimental result": 26}
{"Molecule": "Clc1nc(C(Cl)Cl)nc2sc3c(c12)CCCC3", "Experimental result": 7}
{"Molecule": "O=C1C=CC(=Nc2ccccc2)c2ccccc21", "Experimental result": 5}
{"Molecule": "O=C(/C=C/c1cccc2ccccc12)c1ccc(Cl)cc1", "Experimental result": -21}
{"Molecule": "Cc1ccc(Nc2c3c(c(C#N)c4nc5ccccc5n24)CCCC3)cc1", "Experimental result": 30}
{"Molecule": "Cc1ccc(Nc2n[nH]c(=S)s2)cc1", "Experimental result": -34}

The reported measurements were obtained from PubChem BioAssay (NCI).
